Counter-ions that a name gives are not always drawn.
Exercise: state measured melting point for each of the compounds provided.

Fc1ccc(C(OCCCCN2CCN(c3ccccc3F)CC2)c2ccc(F)cc2)cc1 (as salt: oxalate) yielded melting point of 156 to 158 °C

Fc1ccc(C(OCCCCN2CCN(Cc3ccc4c(c3)OCO4)CC2)c2ccc(F)cc2)cc1 (as salt: oxalate) yielded melting point of 231 to 234 °C

O=[N+]([O-])c1ccc(N2CCN(CCCCOC(c3ccc(F)cc3)c3ccc(F)cc3)CC2)cc1 (as salt: oxalate) yielded melting point of 196 to 198 °C

COc1ccccc1N1CCN(CCCCOC(c2ccc(F)cc2)c2ccc(F)cc2)CC1 (as salt: oxalate) yielded melting point of 139 to 142 °C

Your task in this section: give melting point for each listed record.
1. Fc1ccc(C(OCCCCN2CCN(c3ccccc3)CC2)c2ccc(F)cc2)cc1 (as salt: oxalate)
2. O=C1CN(CCCCOC(c2ccc(F)cc2)c2ccc(F)cc2)CCN1 (as salt: oxalate)
3. O=[N+]([O-])c1ccc(S(=O)(=O)N2CCN(CCCCOC(c3ccc(F)cc3)c3ccc(F)cc3)CC2)cc1 (as salt: oxalate)
4. Fc1ccc(C(OCCCCN2CCN(c3ccc(Cl)cc3)CC2)c2ccc(F)cc2)cc1 (as salt: oxalate)
5. O=C(c1ccccc1)N1CCN(CCCCOC(c2ccc(F)cc2)c2ccc(F)cc2)CC1 (as salt: oxalate)

185 to 187 °C
120 to 123 °C
170 to 173 °C
179 to 181 °C
121 to 123 °C

----------
- Study target: human serotonin transporter (hSERT) (Homo sapiens)
- Sequence (P31645 whole entry): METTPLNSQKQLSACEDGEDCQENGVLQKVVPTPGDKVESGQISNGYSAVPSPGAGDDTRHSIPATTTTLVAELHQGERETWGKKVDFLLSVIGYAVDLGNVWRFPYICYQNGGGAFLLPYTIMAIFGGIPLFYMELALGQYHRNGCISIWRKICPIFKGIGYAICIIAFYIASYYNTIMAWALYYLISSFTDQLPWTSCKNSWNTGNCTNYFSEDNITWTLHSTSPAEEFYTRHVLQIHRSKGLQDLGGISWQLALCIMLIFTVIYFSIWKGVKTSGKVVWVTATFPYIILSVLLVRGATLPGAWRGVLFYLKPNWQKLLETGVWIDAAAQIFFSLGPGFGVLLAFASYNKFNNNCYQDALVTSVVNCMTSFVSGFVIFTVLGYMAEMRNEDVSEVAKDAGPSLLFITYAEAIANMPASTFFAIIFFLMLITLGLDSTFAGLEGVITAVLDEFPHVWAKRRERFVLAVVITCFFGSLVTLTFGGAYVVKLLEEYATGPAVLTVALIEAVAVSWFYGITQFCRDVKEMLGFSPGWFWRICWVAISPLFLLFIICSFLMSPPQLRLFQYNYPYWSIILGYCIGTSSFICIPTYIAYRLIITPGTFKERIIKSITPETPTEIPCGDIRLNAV
- Experiment description: biochemical
- Assay setup: Table 2; [125I]RTI-55; read-out: SERT binding affinity Ki
Exercise: state measured Ki for each of the compounds provided.
Numbers only, in nM.

O=C(NCC1CCCN(CCCCOC(c2ccc(F)cc2)c2ccc(F)cc2)C1)Nc1ccc(F)cc1 (stereo not shown) yielded Ki of 198

O=C(NCC1CCCN(CCCCOC(c2ccc(F)cc2)c2ccc(F)cc2)C1)c1cccc(C(F)(F)F)c1 (stereo not shown) yielded Ki of 496

NCC1CCCN(CCCCOC(c2ccc(F)cc2)c2ccc(F)cc2)C1 (stereo not shown) yielded Ki of 883

// next entry
O=C(NCc1ccc(F)cc1)NCC1CCCN(CCCCOC(c2ccc(F)cc2)c2ccc(F)cc2)C1 (stereo not shown) yielded Ki of 545

----------
Exercise: state measured Binding Ratios NET/DAT for each of the compounds provided.
- Study target: UniProtKB Q01959
- Sequence (Q01959 whole entry): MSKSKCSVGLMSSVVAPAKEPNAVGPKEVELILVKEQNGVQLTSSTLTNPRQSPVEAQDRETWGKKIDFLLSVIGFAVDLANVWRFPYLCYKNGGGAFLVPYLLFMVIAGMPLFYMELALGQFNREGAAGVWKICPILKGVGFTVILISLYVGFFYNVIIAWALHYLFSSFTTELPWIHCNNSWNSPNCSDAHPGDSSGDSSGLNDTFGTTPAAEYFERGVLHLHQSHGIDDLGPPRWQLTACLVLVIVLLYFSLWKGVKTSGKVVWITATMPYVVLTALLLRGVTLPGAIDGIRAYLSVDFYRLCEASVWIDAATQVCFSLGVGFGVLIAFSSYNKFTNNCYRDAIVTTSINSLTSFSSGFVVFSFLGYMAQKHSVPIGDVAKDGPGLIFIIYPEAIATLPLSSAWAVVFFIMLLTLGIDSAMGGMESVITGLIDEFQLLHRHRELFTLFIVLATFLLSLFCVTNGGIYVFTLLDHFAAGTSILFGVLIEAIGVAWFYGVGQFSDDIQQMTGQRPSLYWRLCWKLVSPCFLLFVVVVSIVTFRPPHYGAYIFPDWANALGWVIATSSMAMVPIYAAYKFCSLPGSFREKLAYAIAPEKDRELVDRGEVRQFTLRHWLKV
- Experiment description: biochemical
- Type: binding
- Assay setup: Table 5
Numbers only.

Binding Ratios NET/DAT of O=C(c1ccccc1)N1CCN(CCCCOC(c2ccc(F)cc2)c2ccc(F)cc2)CC1 , assay on UniProtKB Q01959, is 18.5

Your task in this section: give Binding Ratios NET/DAT for each listed record.
1. Fc1ccc(C(OCCCCN2CCN(c3cccc(C(F)(F)F)c3)CC2)c2ccc(F)cc2)cc1
2. Fc1ccc(C(OCCCCN2CCN(c3ccccc3)CC2)c2ccc(F)cc2)cc1
3. COc1ccccc1N1CCN(CCCCOC(c2ccc(F)cc2)c2ccc(F)cc2)CC1

1. 6.8
2. 3.3
3. 3.5

----------
- Study target: UniProt Q01959
- Experiment description: biochemical
- Format: binding
- Assay setup: Table 1
Exercise: state measured Binding Ratios NET/DAT for each of the compounds provided.

Your task in this section: give Binding Ratios NET/DAT for each listed record.
1. O=C(NCc1ccc(F)cc1)N1CCN(CCCCOC(c2ccc(F)cc2)c2ccc(F)cc2)CC1
2. O=C(Nc1ccc(F)cc1)N1CCN(CCCCOC(c2ccc(F)cc2)c2ccc(F)cc2)CC1
3. Fc1ccc(C(OCCCCN2CCN(C(=S)Nc3cccnc3)CC2)c2ccc(F)cc2)cc1
4. O=C(Nc1ccc(-c2ccccc2)cc1)N1CCN(CCCCOC(c2ccc(F)cc2)c2ccc(F)cc2)CC1
5. O=C(NS(=O)(=O)c1ccc(F)cc1)N1CCN(CCCCOC(c2ccc(F)cc2)c2ccc(F)cc2)CC1

1. 1.6
2. 2.2
3. 14.4
4. 104
5. 8.1

Hey, just so you know, these numbers are from patent US8772319B2.
